Experiment: amyloid nucleation score (Sup35N fusion, yeast selection) (log enrichment); library NNK1; higher = more nucleation; inactive = no reads after selection;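 also: zero at mode of non-aggregating sequences after 7 days selection at 30°C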
Experimental Endpoint: amyloid nucleation score
Please reply with the number alone, leaving off any unit.

Query: Given the substance VLSFVLDYCNAEV , what is its reported amyloid nucleation score?
Reply: 0.653

Query: Input WCSTQLVRKIKVFEKSERGV
Reply: -1.07

Query: Next entry: SRVSTFGWIIRSEYYFFWAW
Reply: 0.666

Query: Can you handle RIGVLNCWEVWADVTQREHL next?
Reply: -0.769

Query: Likewise for PRTTMMAINQVLTGTLEASW ?
Reply: -1.01

Query: Please give the result for MRMRKNEHYE too.
Reply: 0.476

Query: Again, but for YQTGYGGCGYCRLVRGCVKV
Reply: -0.442

Query: Subsequent entry: SLFLGVVHFAVRVSLGSVWG
Reply: -0.771

Query: Same read-out for SIEDHDYFLIAFY ?
Reply: -0.076

Query: Entry to check: PYDYRI
Reply: -0.503

Query: Cool, now GTRWSHTWWPGTNLMLCVQG
Reply: -0.453

Query: Also KFSNWTDV ?
Reply: -0.164

Query: Okay, and SAWSGR ?
Reply: 0.104

Query: Can you check VGRACRPDWFLFLRRRKGSR next?
Reply: -0.344

Query: Now the substance KLEMARAIKFFGYDTLETAF
Reply: 1.1

Query: Next substance: PDFIHFY
Reply: 0.182

Query: Next: LLKSKGGLPILRPCWLPFWQ
Reply: 0.066

Query: Now try FVAGDSLTHARKYAVQRL .
Reply: -1.08

Query: Please do the same for PHPVVLASLSIDWVPRCSES as well.
Reply: -0.179

Query: Lookup FDCVMLISHHCVILCCFSDM
Reply: 0.205

Query: Then SIVMYDTNMTFRWSAYGRKN ?
Reply: 2.13

Query: And then CTDVNSQ , what is it?
Reply: 0.033

Query: Please give the result for DTQESSNIVRSLPRLVGLLG too.
Reply: 0.248

Query: Let us now turn to GILLRH
Reply: -0.742

Query: Now give it for DETQKPRVLCMLLLSKSTEN too.
Reply: 0.558

Query: Same read-out for RNSITEIPCPEMYSNNRLAF ?
Reply: 1.13

Query: Cool, now CPGNIIYTFPIDVPKHG
Reply: 0.641

Query: Try the substance RFSQWLPFWSVGGELQSCFC
Reply: 0.239

Query: Then MGSVVHRKVEVHGRFKCGAT ?
Reply: 0.477

Query: Please give the result for FAEFKDICMRE too.
Reply: 0.978

====

Assay: amyloid nucleation score (Sup35N fusion, yeast selection) (log enrichment); library NNK1; higher = more nucleation; inactive = no reads after selection
Experimental Endpoint: amyloid nucleation score

Example results:
[[record]]
substance = "SETFKRE"
experimental_endpoint = "amyloid nucleation score"
measurement = -0.328

[[record]]
substance = "FEQCPIFRRGRLLRSNAVCA"
experimental_endpoint = "amyloid nucleation score"
measurement = -0.145

[[record]]
substance = "KVPKRKITNFRGMSGFSRYR"
experimental_endpoint = "amyloid nucleation score"
measurement = 0.985

[[record]]
substance = "LDKYLHLRLWHTVFWYSTIK"
experimental_endpoint = "amyloid nucleation score"
measurement = "inactive"

[[record]]
substance = "CYLKGYA"
experimental_endpoint = "amyloid nucleation score"
measurement = 0.853


Query: Using the record for FGLQWSSKAACVLTCKQSLR , report its amyloid nucleation score.
Reply: inactive

Query: Another substance: FVSRGLYGVLGTVSFLL
Reply: -2.07

====

Assay: amyloid nucleation score (Sup35N fusion, yeast selection) (log enrichment); library NNK1; higher = more nucleation; inactive = no reads after selection
Experimental Endpoint: amyloid nucleation score
Just the number, please, no unit attached.

Query: Please give the measured amyloid nucleation score for this sequence: WDTPFFCPSRNFRRATGPYP
Reply: 0.983

Query: Entry to check: RRSLYYGITIN
Reply: -0.337

Query: Do the same for PTFAADSEGHS please
Reply: 0.085

Query: Next sequence up: HIWLVVKKFPNIEHSIMIGS
Reply: -0.334

Query: What about STHCFWVTPGD ?
Reply: 0.483

Query: Try this sequence too: ALLNVQVRGYVGLGR
Reply: 1.4

====

Experiment: amyloid nucleation score (Sup35N fusion, yeast selection) (log enrichment); library NNK1; higher = more nucleation; inactive = no reads after selection
Experimental Endpoint: amyloid nucleation score

[[record]]
item_sequence = "PMLVQLLEASWVKPVLDCIY"
measurement = "inactive"

[[record]]
item_sequence = "ALDVWVLMKHSYGLSTVDAL"
measurement = "inactive"

[[record]]
item_sequence = "VIFYTFMVRTITACCLKLWV"
measurement = "inactive"


====

Assay: amyloid nucleation score (Sup35N fusion, yeast selection) (log enrichment); library NNK3; higher = more nucleation; inactive = no reads after selection
Experimental Endpoint: amyloid nucleation score

Example entries and their recorded answers appear below.
[[record]]
substance = "SKLFFRNTLVSIISM"
measurement = "inactive"

[[record]]
substance = "KFIGFYVWVYVCHCVVIRAY"
measurement = "inactive"

[[record]]
substance = "LKLFWSLET"
measurement = "inactive"

[[record]]
substance = "NYGGFKDFG"
measurement = 1.51

[[record]]
substance = "PLFWNGSC"
measurement = "inactive"

[[record]]
substance = "YFFTHDFHVVLNFANCIWYL"
measurement = 2.99

[[record]]
substance = "SYEGMTREPLYMVYMRGSTD"
measurement = 1.16

[[record]]
substance = "RTDLWRIGDVANWIYALP"
measurement = "inactive"


Now consider the entry below.
Query: If you can, please state the reported amyloid nucleation score value of NTSDPSNRFLPFLYVRLHSS .
Reply: inactive

====

Exercise: for every item that follows, state its recorded amyloid nucleation score.
Test: amyloid nucleation score (Sup35N fusion, yeast selection) (log enrichment); library NNK1; higher = more nucleation; inactive = no reads after selection
Provide a numeric answer; units are not to be included.

Query: Param item = VKTYRPVSRGAKNKVRLAQG ; retrieve measured amyloid nucleation score.
Reply: 0.642

Query: Thanks! And PPRYLMRDLTHWSPYR ?
Reply: 1.34

Query: Can you check LTITGSFIHPI next?
Reply: -0.739

Query: What about this substance? VDISVAYRC
Reply: -1.59

Query: Ok, now FKYSFMIYNLARSVCYCTVS
Reply: -0.002

Query: Also, TGYVIGWVSWTSWWEMGLYR please.
Reply: -2.43

Query: Repeat with KRNRYTKGTHHTSFMNFYFC
Reply: 8.37

Query: Try this substance next: ESHRRR
Reply: 0.569

Query: Cool, now AWLNRSYRMLHPMWGVCMDM
Reply: 1.26

Query: Entry VQAVIWWRGRDYGRHRSRPW please
Reply: -0.35

Query: Try this substance too: FSIKHPLSSGSKISCVA
Reply: -1.23

Query: Please give the result for LGRSWWYYSQLWDSRHLSF too.
Reply: -0.38

Query: Another: SCLCFLNPTNFEKLLISFVP
Reply: 0.725

Query: Same read-out for KGLIKDNCNTSGGEFNCGY ?
Reply: -0.278

Query: Now consider VVDVSYRNLRRCM .
Reply: 0.8

Query: Entry FNFRSS please
Reply: -0.618

Query: Next substance up: VRFSLHDRGRQTRTCYSPWA
Reply: 0.006

Query: Also GCMAPNCCGWEGVDEMSWVR , if possible.
Reply: -0.013

Query: Another substance to check: LKKTYYSMYL
Reply: -0.045

Query: Quick one: EIVSIS
Reply: -0.42

Query: // query: IRDTLNVCNKEEQKSRGS
Reply: -0.358

Query: Repeat with MCKYVMRVLHIVAG
Reply: 0.699

Query: Continue with HSNIRMCKAECSRGELH
Reply: 0.812

Query: Try the substance HYRYFCGLTYVDSAARLQGG
Reply: -1.5

Query: // query: CIRREFSHDESDVNRSTWFI
Reply: 0.391

Query: Please answer likewise for AYPLKTFIFYHGLMIWFNAM
Reply: 0.827

Query: Would you kindly repeat that for HLLNYIVGL ?
Reply: 0.294

Query: # iterate: IGSMRMVSGLRFMRFVDHFS
Reply: -0.316

Query: And KSKIQDLCCPSRPVVGMVCL ?
Reply: 0.239

Query: Repeat for the following substance: VIAKRPSMWGSKRNFRLVRV
Reply: 0.512

Query: Please answer likewise for KKALTALM
Reply: 0.822

Query: Could you do the same for LSCSFDESW , please?
Reply: 0.024

Query: Another substance to check: SRDEFCG
Reply: -0.326

Query: Follow-up entry: ARRGVVNPYLSVEFFFRRGL
Reply: 0.493

Query: Same for CLNSDALDHW
Reply: 1.17

Query: Same read-out for MSDSRIVTVIVRRQPVSQRS ?
Reply: 1.33

Query: # iterate: LYVLYAIRFLSFCSFWRYLI
Reply: -1.15

Query: And then HFEQGYAHSSYMWVLGRPMW , what is it?
Reply: 2.86

Query: Also, SVVLMLKYRYMHLTGLWSWS please.
Reply: 0.16

Query: // same read-out, input: VIHYCYSCFSADQAGLLFTR
Reply: 2.22

Query: Proceed to SGFGYSYCTLHCRTFWCLRP
Reply: 0.972

Query: Query SARRRRYGEAGSLGHELQWT next
Reply: 0.675

Query: How about this substance: AMEPKVWRDGLLPG
Reply: -0.471

Query: Continue with RKSDEGMKSPIGREIMGKSM
Reply: 0.431

Query: Let us now turn to ATDSWDC
Reply: 0.278

Query: What do you get for TYSWEDCTYGITPSGTYRSN ?
Reply: 1.33

Query: Quick one: CTGPMD
Reply: 0.055

Query: Next: GISLSLVVERSGK
Reply: 1.49

Query: Same lookup for FKSYPVGIRRHCHGTSMLMG , please.
Reply: 0.059

Query: Next substance: FRTRGFLHSKVLVRLQYWIK
Reply: 0.494

Query: What do you get for GINNIYGLRYRHMPTSSIVA ?
Reply: 1.88

Query: Quick one: SRIGTCGLNSCCLINNIVRD
Reply: 6.92

Query: Queued: INHVMHGMEVRRGVNGRWMY
Reply: 0.312

Query: Repeat with KALVADC
Reply: 0.001

Query: Here is the next substance: ENVAITMVLPSAKMGSYMDG
Reply: 0.453

Query: Quick one: LHLECLWCLARTSYF
Reply: 8.24

Query: And the next one, ILISVSLNMWY ?
Reply: 2.43

Query: Further, for VNWVLIERWVVS ?
Reply: -1.13

Query: What do you have for RSVAHSYT ?
Reply: 0.661

Query: # iterate: SSCLEGCKSEACGWSNDGPG
Reply: -0.048
